target: LCK (Homo sapiens, UniProt P06239); experiment: Inhibition of a panel of kinases, in vitro HotSpot kinase assay: LCK; type: biochemical; details: Table 13, A compounds; 1 μM ATP; read-out: IC50 LCK
Sequence (P06239 whole entry): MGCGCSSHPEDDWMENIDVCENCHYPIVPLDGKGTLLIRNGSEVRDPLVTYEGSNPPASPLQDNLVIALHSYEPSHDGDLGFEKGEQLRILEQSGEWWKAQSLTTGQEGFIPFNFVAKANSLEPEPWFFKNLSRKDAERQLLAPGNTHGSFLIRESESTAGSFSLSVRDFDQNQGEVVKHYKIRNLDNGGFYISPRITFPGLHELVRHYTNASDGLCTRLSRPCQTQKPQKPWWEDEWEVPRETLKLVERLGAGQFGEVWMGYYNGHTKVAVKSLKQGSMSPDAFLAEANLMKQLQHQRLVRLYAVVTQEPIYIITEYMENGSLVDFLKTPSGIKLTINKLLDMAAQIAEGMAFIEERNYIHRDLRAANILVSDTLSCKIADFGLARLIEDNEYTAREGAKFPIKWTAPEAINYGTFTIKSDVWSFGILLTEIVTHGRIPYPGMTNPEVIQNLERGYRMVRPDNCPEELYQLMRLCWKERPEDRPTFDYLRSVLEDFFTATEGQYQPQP
pIC50: −log10 of the molar value.
pIC50 reference

{"MOLECULE": "Cc1cc(Nc2nc(N3CCC[C@@H](n4ccc5cc(C6CC6)ccc5c4=O)C3)cnc2C(N)=O)sn1 [Example A-107]", "pIC50": "< 5.00"}
{"MOLECULE": "C[C@@H]1[C@H](NC(=O)c2ccc(C3CC3)cc2F)CCCN1c1cnc(C(N)=O)c(Nc2ccc(C(=O)N3CCN(C)CC3)cc2)n1 [Example A-122]", "pIC50": "6.00 to 7.00"}
{"MOLECULE": "C[C@@H]1[C@H](NC(=O)c2ccc(C3CC3)c(Cl)c2)CCCN1c1cnc(C(N)=O)c(Nc2ccc(N3CCN(C)CC3)cc2)n1 [Example A-189]", "pIC50": "6.00 to 7.00"}
{"MOLECULE": "CN(C)C(=O)N[C@@H]1CCCN(c2cnc(C(N)=O)c(Nc3ccc(C4(C)CCN(C5CCCC5)CC4)cc3)n2)[C@@H]1CO [Example A-101]", "pIC50": "6.00 to 7.00"}
{"MOLECULE": "C[C@@H]1[C@H](NC(=O)c2ccc(C3CC3)cc2)CCCN1c1cnc(C(N)=O)c(Nc2cnn(CCN(C)C)c2)n1 [Example A-182]", "pIC50": "6.00 to 7.00"}
{"MOLECULE": "C[C@@H]1[C@H](NC(=O)N(C)C)CCCN1c1cnc(C(N)=O)c(Nc2ccc(C(=O)N3CCN(C)CC3)cc2)n1 [Example A-98]", "pIC50": "6.00 to 7.00"}
{"MOLECULE": "C[C@@H]1[C@H](NC(=O)c2ccc(C3CC3)cc2F)CCCN1c1cnc(C(N)=O)c(Nc2nc3c(s2)CN(C)CC3)n1 [Example A-108]", "pIC50": "< 5.00"}
{"MOLECULE": "C[C@@H]1[C@H](NC(=O)N(C)C)CCCN1c1cnc(C(N)=O)c(Nc2ccc(N3CCN(C)CC3)cc2)n1 [Example A-100]", "pIC50": "6.00 to 7.00"}
{"MOLECULE": "CN1CCN(Cc2ccc(Nc3nc(N4CCC[C@@H](n5ccc6cc(C7CC7)ccc6c5=O)C4)cnc3C(N)=O)cc2)CC1 [Example A-111]", "pIC50": "6.00 to 7.00"}
{"MOLECULE": "CC(C)N1CCN(c2ccc(Nc3nc(N4CCC[C@@H](NC(=O)c5ccc(C6CC6)cc5F)[C@H]4C)cnc3C(N)=O)cc2)CC1 [Example A-149]", "pIC50": "7.00 to 8.00"}
{"MOLECULE": "CN1CCN(c2ccc(Nc3nc(N4CCC[C@@H](n5ccc6cc(C7CC7)cc(F)c6c5=O)C4)cnc3C(N)=O)cc2)CC1 [Example A-133]", "pIC50": "6.00 to 7.00"}
{"MOLECULE": "CC1(c2ccc(Nc3nc(N4CCC[C@@H](n5ccc6cc(C7CC7)ccc6c5=O)C4)cnc3C(N)=O)cc2)CCN(C2CCCC2)CC1 [Example A-141]", "pIC50": "7.00 to 8.00"}
{"MOLECULE": "COCCN(C)Cc1cc(Nc2nc(N3CCC[C@@H](NC(=O)c4ccc(C5CC5)cc4)[C@H]3C)cnc2C(N)=O)sn1 [Example A-185]", "pIC50": "6.00 to 7.00"}

These data points were gathered from patent US20210070748A1.
